Molecular target: T1, murine IL-21R extracellular domain His-Flag fusion protein (murine, UniProt Q9JHX3 20-237)
T1 construct: Biotinylated in the ELISAs; also called mIL-21R-H/F; murine IL-21R-H/F
Test: SPR, Ab captured on anti-human IgG
Here, each record is paired with measured kon data.
Quick reminder: number only, in M⁻¹ s⁻¹, skip the unit.

Solved cases below.
binder	kon / M⁻¹ s⁻¹
parental 18A5 antibody (antibody, V domains shown, also called 18A5 IgG) VH: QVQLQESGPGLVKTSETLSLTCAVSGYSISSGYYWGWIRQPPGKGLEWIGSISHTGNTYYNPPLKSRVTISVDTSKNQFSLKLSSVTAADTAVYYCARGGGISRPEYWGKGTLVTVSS VL: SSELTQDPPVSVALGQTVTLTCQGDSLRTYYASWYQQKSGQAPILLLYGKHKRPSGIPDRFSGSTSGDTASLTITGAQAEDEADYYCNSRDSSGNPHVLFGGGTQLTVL	212000
AbP (antibody, human IgG1, V domains shown, CDR3 graft, residue limits derived as for m29; also called VHP/VL20; VHPTM/VL20) VH: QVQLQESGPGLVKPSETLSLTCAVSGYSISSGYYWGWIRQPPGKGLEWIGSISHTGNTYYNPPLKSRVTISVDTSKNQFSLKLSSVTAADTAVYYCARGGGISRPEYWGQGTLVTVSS VL: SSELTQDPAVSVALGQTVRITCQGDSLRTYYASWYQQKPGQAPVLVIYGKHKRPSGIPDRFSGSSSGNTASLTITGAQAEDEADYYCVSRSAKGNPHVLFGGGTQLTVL	99900

Query :: Name the recorded kon for AbR (antibody, human IgG1, V domains shown, CDR3 graft, residue limits derived as for m29; also called VH3/VL18; VH3DM/VL18) VH: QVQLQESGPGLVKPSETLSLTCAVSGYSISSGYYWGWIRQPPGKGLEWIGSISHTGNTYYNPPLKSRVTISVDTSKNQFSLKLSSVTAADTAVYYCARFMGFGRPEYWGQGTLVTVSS VL: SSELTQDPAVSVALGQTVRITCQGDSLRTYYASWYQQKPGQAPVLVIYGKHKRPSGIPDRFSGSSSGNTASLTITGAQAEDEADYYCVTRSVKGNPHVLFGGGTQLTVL .
Result :: 76500

Query :: What value of kon has been recorded for this entry: AbQ (antibody, human IgG1, V domains shown, CDR3 graft, residue limits derived as for m29; also called VH3/VL2; VH3DM/VL2) VH: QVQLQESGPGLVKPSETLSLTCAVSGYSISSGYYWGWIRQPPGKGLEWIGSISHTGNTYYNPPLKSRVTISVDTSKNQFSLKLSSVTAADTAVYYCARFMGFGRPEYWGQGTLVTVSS VL: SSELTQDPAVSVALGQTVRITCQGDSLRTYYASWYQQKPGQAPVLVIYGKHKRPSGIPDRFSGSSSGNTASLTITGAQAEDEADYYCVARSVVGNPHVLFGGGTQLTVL
Result :: 301000

All figures here come from patent US20120276102A1.
